// data source = ChEMBL document CHEMBL3351489

Record form. Attribute: solubility at 0.25 h. Fill in for each entry.
experiment: Aqueous solubility of the compound in PBS at pH 7.4 after 15 mins by HPLC method; format: physicochemical

# example entries with known answers
{"columns": ["smilesStr", "measured"],
 "data": [
  ["COc1ccc(OC[C@@]2(c3ccccc3)C[C@H]2C(=O)Nc2ccccc2)cc1OC", "2 µM"],
  ["COc1ccc(OC[C@@]2(c3ccccc3)C[C@H]2C(=O)Nc2ccccn2)cc1OC", "32 µM"]
]}

Query molecule follows.
State the recorded solubility at 0.25 h for this entry: `COc1ccc(OC[C@@]2(c3ccccc3)C[C@H]2C(=O)Nc2ncc(C)s2)cc1OC` < 1 µM
